ASSAY TARGET: human adenosine A2A receptors expressed in CHO cells (Homo sapiens)
Construct: expressed in transfected cells; host or cells: CHO
Sequence (P29274 whole entry): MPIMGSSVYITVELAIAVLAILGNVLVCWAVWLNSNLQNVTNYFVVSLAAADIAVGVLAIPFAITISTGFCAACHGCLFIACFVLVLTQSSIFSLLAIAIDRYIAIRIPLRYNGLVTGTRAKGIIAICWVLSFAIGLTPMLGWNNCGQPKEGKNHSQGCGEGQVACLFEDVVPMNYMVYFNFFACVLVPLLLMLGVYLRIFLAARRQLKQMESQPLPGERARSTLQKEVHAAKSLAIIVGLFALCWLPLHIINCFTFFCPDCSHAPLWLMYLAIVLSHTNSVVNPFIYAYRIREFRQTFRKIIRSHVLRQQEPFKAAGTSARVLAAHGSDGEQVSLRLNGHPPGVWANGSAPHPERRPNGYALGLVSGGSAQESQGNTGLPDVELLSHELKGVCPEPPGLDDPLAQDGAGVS
ASSAY OVERVIEW: cAMP assay A2A (stimulation of cAMP production)
Assay type: cell-based
TEST SETTINGS: cAMP production, A2A CHO cells
PROPERTY: EC50 (µM)
Answers are plain numbers, in µM.

-- ask Identify measured EC50 obtained with human adenosine A2A receptors expressed in CHO cells (Homo sapiens) for CCCCC#Cc1nc(N)c2ncn(C3OC(CSC)C(O)C3O)c2n1 (stereo not shown) .
-- reply 0.7
